Tested on: Mycobacterium tuberculosis
Experimental protocol: Antimycobacterial activity against Mycobacterium tuberculosis H37Rv after 5 days by microplate alamar blue assay
Assay type: functional
Parameter: -logMIC
Answer using only a numeral; do not append any unit.

Chem smiles | -logMIC
C/C(=N\NS(=O)(=O)c1ccc(C)cc1)c1ccc(-n2c(C)ccc2C)cc1 | 6.398
C/C(=N\NC(=O)c1ccc(Cl)cc1)c1ccc(-n2cccc2)cc1 | 4.301
C/C(=N\NC(=O)c1ccc(O)cc1)c1ccc(-n2c(C)ccc2C)cc1 | 4.602

Could you tell me which -logMIC is on file for `C/C(=N\NC(N)=S)c1ccc(-n2c(C)ccc2C)cc1` ?
4.301

Could you tell me which -logMIC is on file for `C/C(=N\NC(=O)COc1ccc(C)cc1)c1ccc(-n2cccc2)cc1` ?
4.903

Could you tell me which -logMIC is on file for `C/C(=N\NC(=O)c1ccc(Br)cc1)c1ccc(-n2cccc2)cc1` ?
4.301

Could you tell me which -logMIC is on file for `C/C(=N\Nc1ccc([N+](=O)[O-])cc1[N+](=O)[O-])c1ccc(-n2c(C)ccc2C)cc1` ?
4.903

Could you tell me which -logMIC is on file for `C/C(=N\NC(=O)c1cccnc1)c1ccc(-n2c(C)ccc2C)cc1` ?
4

Could you tell me which -logMIC is on file for `C/C(=N\NC(=O)COc1ccc(Br)cc1)c1ccc(-n2cccc2)cc1` ?
4.301

Could you tell me which -logMIC is on file for `C/C(=N\NC(=O)COc1ccc(O)cc1)c1ccc(-n2c(C)ccc2C)cc1` ?
4.602

Could you tell me which -logMIC is on file for `C/C(=N\NC(N)=O)c1ccc(-n2c(C)ccc2C)cc1` ?
4.301

Could you tell me which -logMIC is on file for `C/C(=N\NC(=O)c1ccncc1)c1ccc(-n2cccc2)cc1` ?
4.301

Could you tell me which -logMIC is on file for `C/C(=N\NC(=O)COc1ccccc1)c1ccc(-n2c(C)ccc2C)cc1` ?
6.097

Could you tell me which -logMIC is on file for `C/C(=N\Nc1ccccc1)c1ccc(-n2cccc2)cc1` ?
4.903

Could you tell me which -logMIC is on file for `C/C(=N\NC(=O)c1ccc(C)cc1)c1ccc(-n2cccc2)cc1` ?
4.301

Could you tell me which -logMIC is on file for `C/C(=N\Nc1ccccc1)c1ccc(-n2c(C)ccc2C)cc1` ?
4.602

Could you tell me which -logMIC is on file for `C/C(=N\NC(=O)COc1ccccc1Cl)c1ccc(-n2c(C)ccc2C)cc1` ?
4.301
